Reference source for all entries: patent US8404664B2

The following molecules are shown together with reported MIC values.
test system: S. aureus ATCC 13709; test: Antibacterial susceptibility (MIC) in the presence of serum; format: cell-based; details: Staphylococcus aureus, ATCC13709, 18 h; read-out: Minimum inhibitory concentration, S. aureus ATCC 13709 + 50% Rat Serum
Be sure to follow the number with its unit.

molecule="CO[C@H]1/C=C/O[C@@]2(C)Oc3c(C)c(O)c4c(=O)c(c5oc6cc(N7CCN(CCO)CC7)cc(O)c6nc-5c4c3C2=O)NC(=O)/C(C)=C\\C=C\\[C@H](C)[C@H](O)[C@@H](C)[C@@H](O)[C@@H](C)[C@H](OC(C)=O)[C@@H]1C [Compound 56]" reported_result="2 ng/mL"

Field request: MIC | item: CO[C@H]1/C=C/O[C@@]2(C)Oc3c(C)c(O)c4c(=O)c(c5oc6cc(N7CCNCC7)cc(O)c6nc-5c4c3C2=O)NC(=O)/C(C)=C\C=C\[C@H](C)[C@H](O)[C@@H](C)[C@@H](O)[C@@H](C)[C@H](OC(C)=O)[C@@H]1C [Compound 69]
1.9 ng/mL

---

test system: S. aureus ATCC 13709; assay: Antibacterial susceptibility (MIC) in the presence of serum; format: cell-based; settings: Staphylococcus aureus, ATCC13709, 18 h; read-out: Minimum inhibitory concentration, S. aureus ATCC 13709 + 50% Mouse Serum
# Yes = MIC below 0.03 µg/mL (exclusive); No = MIC at/above 0.03 µg/mL

compound=CO[C@H]1/C=C/O[C@@]2(C)Oc3c(C)c(O)c4c(=O)c(c5oc6cc(N7CCN(CCO)CC7)cc(O)c6nc-5c4c3C2=O)NC(=O)/C(C)=C\C=C\[C@H](C)[C@H](O)[C@@H](C)[C@@H](O)[C@@H](C)[C@H](OC(C)=O)[C@@H]1C category=Yes
compound="CO[C@H]1/C=C/O[C@@]2(C)Oc3c(C)c(O)c4c(O)c(c(/C=N/N5CCN(C)CC5)c(O)c4c3C2=O)NC(=O)/C(C)=C\\C=C\\[C@H](C)[C@H](O)[C@@H](C)[C@@H](O)[C@@H](C)[C@H](OC(C)=O)[C@@H]1C [Rifampicin, reference compound]" category=No
compound="CO[C@H]1/C=C/O[C@@]2(C)Oc3c(C)c(O)c4c(=O)c(c5oc6cc(N7CCN(CC(C)C)CC7)cc(O)c6nc-5c4c3C2=O)NC(=O)/C(C)=C\\C=C\\[C@H](C)[C@H](O)[C@@H](C)[C@@H](O)[C@@H](C)[C@H](OC(C)=O)[C@@H]1C [Rifalazil, reference compound]" category=No
compound=CO[C@H]1/C=C/O[C@@]2(C)Oc3c(C)c(O)c4c(=O)c(c5oc6cc(N7CCNCC7)cc(O)c6nc-5c4c3C2=O)NC(=O)/C(C)=C\C=C\[C@H](C)[C@H](O)[C@@H](C)[C@@H](O)[C@@H](C)[C@H](OC(C)=O)[C@@H]1C category=Yes
compound=CO[C@H]1/C=C/O[C@@]2(C)Oc3c(C)c(O)c4c(=O)c(c5oc6cc(N7CCC(O)CC7)cc(O)c6nc-5c4c3C2=O)NC(=O)/C(C)=C\C=C\[C@H](C)[C@H](O)[C@@H](C)[C@@H](O)[C@@H](C)[C@H](OC(C)=O)[C@@H]1C category=Yes

Please look at the following compound next.
Input CO[C@H]1/C=C/O[C@@]2(C)Oc3c(C)c(O)c4c(O)c(c(/C=N/N5CCN(CCO)CC5)c(O)c4c3C2=O)NC(=O)/C(C)=C\C=C\[C@H](C)[C@H](O)[C@@H](C)[C@@H](O)[C@@H](C)[C@H](OC(C)=O)[C@@H]1C ; condition: MIC strictly below 0.03 µg/mL. Does it hold?
No
